Reported remaining activity at 100 µM values for the following compounds.
TESTED_TARGET: JNK1 (Homo sapiens)
Sequence (P45983 whole entry, species assumed): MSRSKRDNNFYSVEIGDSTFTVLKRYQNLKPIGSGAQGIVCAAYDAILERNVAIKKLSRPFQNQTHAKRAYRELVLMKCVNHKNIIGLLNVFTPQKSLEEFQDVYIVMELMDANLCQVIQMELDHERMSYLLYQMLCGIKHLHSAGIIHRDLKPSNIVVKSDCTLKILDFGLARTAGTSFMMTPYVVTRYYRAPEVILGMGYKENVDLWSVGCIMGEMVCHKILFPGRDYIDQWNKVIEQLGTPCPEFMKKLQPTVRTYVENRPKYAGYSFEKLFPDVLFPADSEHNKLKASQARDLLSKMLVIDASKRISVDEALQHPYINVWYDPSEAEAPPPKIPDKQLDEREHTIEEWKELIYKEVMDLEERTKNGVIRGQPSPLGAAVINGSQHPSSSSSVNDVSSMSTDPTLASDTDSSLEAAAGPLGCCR
TEST_SUMMARY: Kinase profiling JNK1
Assay type: biochemical
PARTICULARS: 100 micromolar inhibitor concentration; 100 is no change; read-out: residual kinase activity, JNK1
Source text: Any value less that 25 is considered to be highly significant inhibition.
Your answer is read as %, so omit the unit and give the number.

For CC(=O)Nc1nc2ccc(C#N)cc2s1 [Compound 01-94] , what is its reported remaining activity at 100 µM? 90

For CC(=O)Nc1nc2ccc(C(F)(F)F)cc2s1 [Compound 01-90] , what is its reported remaining activity at 100 µM? 104

Recorded remaining activity at 100 µM of CC(=O)Nc1nc2ccc(O)cc2s1 [Compound 01-71] , please. 72

Would you kindly share the measured remaining activity at 100 µM for CC(=O)Nc1nc2cc(F)ccc2s1 [Compound 03-77] ? 80
